assayed.target: T1, Dog ASGR-1 (dog)
T1 construct: Expressed on HEK 293 cells or as membrane prep on beads; cDNA GenBank XM_546579
T1 chain: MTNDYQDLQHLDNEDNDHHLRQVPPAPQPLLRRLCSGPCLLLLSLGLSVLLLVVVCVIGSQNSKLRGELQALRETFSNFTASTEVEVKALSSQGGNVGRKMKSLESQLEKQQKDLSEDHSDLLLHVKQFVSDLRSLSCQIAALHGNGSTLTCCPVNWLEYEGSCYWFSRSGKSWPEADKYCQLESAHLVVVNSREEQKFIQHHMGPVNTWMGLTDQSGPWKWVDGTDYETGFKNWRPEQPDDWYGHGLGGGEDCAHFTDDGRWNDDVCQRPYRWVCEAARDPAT
measurement.protocol: FACS on transfected HEK 293 cells or membrane preps on beads; Y = signal at least 2x irrelevant IgG

# binder, binding result
data = [
    ("194A4 (antibody, V domains shown, Tested as hybridoma supernatant at normalized concentration) VH: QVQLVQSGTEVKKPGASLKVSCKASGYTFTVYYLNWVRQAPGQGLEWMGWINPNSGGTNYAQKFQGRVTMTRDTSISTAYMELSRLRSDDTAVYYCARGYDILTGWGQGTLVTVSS VL: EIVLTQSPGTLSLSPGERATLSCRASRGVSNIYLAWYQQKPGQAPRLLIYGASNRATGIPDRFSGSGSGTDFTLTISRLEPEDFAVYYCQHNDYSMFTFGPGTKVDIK", "binds"),
]
